Give measured folding enthalpy for each item. Keep answers brief.
Assay: folding enthalpy; higher = less favourable; fluorescence melt of hairpins on a sequencing array, two-state fit
Details: sodium 0.088 M
Numbers only, in kcal/mol.

GTCTAAGGAAACTTAGAC (((((((....))))))): -41.9
GGACGCGAAAGCGCATCC ((((((....)))..))): -10.1
GCCCACGCGAAAGCGGGC (((..(((....)))))): -11.9
GCGAGTCTTCGC ((((....)))): -26.2
GCGGTGACCGC ((((...)))): -23.6

Hey, can you go through the list below and give me folding enthalpy for every item?
1. GTGGGTGGAAACGCTCAC (((.(.(....).).)))
2. GGGCAATCGAAAGATCCC (((..(((....))))))
3. GCTCTCGCGAAAGCGAGC (((..(((....))))))
4. GGCAGCGGAAACGCCGCC (((.(((....))).)))
5. GATCACTAACGTGATC ((((((....))))))
6. GATGGTGGAAACACCATC (((((((....)))))))

OUTPUT:
1: -33; 2: -21.5; 3: -4.57; 4: -31.3; 5: -33.1; 6: -39.4

Hey, can you go through the list below and give me folding enthalpy for every item?
1. GAGTCTGGAAACGGACTC (((((.(....).)))))
2. GCATGGGGAAACCCACGC ((.((((....)))).))
3. GTTGTCGGAAACGATGAC ((..(((....)))..))
4. GACGTAGCGAAAGCTGTC (((..(((....))))))
5. GTGCCCGCGAAAGCGCAC (((..(((....))))))
6. GTTGCCCCGAAAGGGAAC (((..(((....))))))

OUTPUT:
-40.4
-23.8
-16
-17.7
-13.5
-14.2

Hey, can you go through the list below and give me folding enthalpy for every item?
1. GCCGAGCGAAAGCCCCGC ((.(.((....)).).))
2. GGCCGGCGAAAGCCTGCC (((.(((....))).)))
3. GATCTCTTGCGAGATC ((((((....))))))
4. GTCATCGAAAGATGAGAC ((((((....)))..)))

OUTPUT:
1: -12.1; 2: -29.7; 3: -42.4; 4: -13.7

Hey, can you go through the list below and give me folding enthalpy for every item?
1. GTAAACCGAAAGGTGTAC (((.(((....))).)))
2. GCCTATGGAAACGTAGGC (((((.(....).)))))

OUTPUT:
1: -23.3; 2: -39.8

Hey, can you go through the list below and give me folding enthalpy for every item?
1. GCCTATTCGAAAGAAGGC (((..(((....))))))
2. CGTCCGGAAACGGAGACG ((((((....)))..)))

OUTPUT:
[-20.6, -21.4]

====

Test: melting temperature; fluorescence melt of hairpins on a sequencing array, two-state fit, raised by 9.35 °C to match UV melts
Settings: sodium 0.088 M
Lab note: cut-off is 50 °C. Strictly less in Tm is true (1). Exactly 50 °C or more is false (0).

GATCTTTTTAAGATC ((((((...)))))): true (1)

INPUT: State whether 50 °C exceeds Tm recorded for GCTCGGCGAAAGCATAGC (((..((....))..))) .
OUTPUT: true (1)

INPUT: State whether 50 °C exceeds Tm recorded for GGACGTCGAAAGACCTCC (((.(((....))).))) .
OUTPUT: true (1)

INPUT: State whether 50 °C exceeds Tm recorded for GGAGGGCGAAAGCCATCC (((.(((....))).))) .
OUTPUT: false (0)

INPUT: State whether 50 °C exceeds Tm recorded for GTGAAACGAAAGTTGCAC (((.(((....))).))) .
OUTPUT: false (0)

INPUT: State whether 50 °C exceeds Tm recorded for GGTTCGGGAAACCGGACC (((.(((....))).))) .
OUTPUT: false (0)

INPUT: State whether 50 °C exceeds Tm recorded for GCCGCCGAAAGGCCGGGC ((((((....)))..))) .
OUTPUT: false (0)

INPUT: State whether 50 °C exceeds Tm recorded for GGGTCGGGAAACCGGCCC (((.(((....))).))) .
OUTPUT: false (0)

INPUT: State whether 50 °C exceeds Tm recorded for GATCGCTAGAGCGATC ((((((....)))))) .
OUTPUT: false (0)

INPUT: State whether 50 °C exceeds Tm recorded for GGAAAGTCGAAAGACTCC (((..(((....)))))) .
OUTPUT: true (1)

INPUT: State whether 50 °C exceeds Tm recorded for GCGTCCACACGC ((((....)))) .
OUTPUT: false (0)

INPUT: State whether 50 °C exceeds Tm recorded for GAATACGGAAACGTATCC (.(((((....))))).) .
OUTPUT: true (1)

====

Test: folding enthalpy; higher = less favourable; fluorescence melt of hairpins on a sequencing array, two-state fit
Settings: sodium 0.088 M
Kindly return Y if reported folding enthalpy is no lower than -20 kcal/mol; return N if it is lower.

Reference set, count: 2
GGCCCCGAAAGGGCAGCC ((((((....)))..))): Y
GGACACGGAAACATGTCC (((((.(....).))))): N

Shifting focus to the sequence that follows.
INPUT: Does folding enthalpy meet or surpass -20 kcal/mol for GCACGAGGAAACCCGTGC (((((.(....).))))) ?
OUTPUT: N

====

Give measured folding enthalpy for each item. Keep answers brief.
Experiment: folding enthalpy; higher = less favourable; fluorescence melt of hairpins on a sequencing array, two-state fit
Details: sodium 0.088 M
Numbers only, in kcal/mol.

Worked examples, 6 sequences total:
GTGTTGACGAAAGTCCAC (((..(((....)))))): -19.6
CGGACCGGAAACGGACCG (((.(((....))).))): -41.5
GCGGCAGGAAACTGCTGC ((.((((....)))).)): -43.2
GGGGTGAAAACCCC (((((....))))): -21.1
GTGACCGAAAGGTCGCAC ((((((....)))..))): -11.1
GCTCGTGGAAACGTGAGC ((((..(....)..)))): -21.3

Hey, can you go through the list below and give me folding enthalpy for every item?
1. GTATTGGGAAACCAATGC (.(((((....))))).)
2. GGAGAGAAATCTCC (((((....)))))
3. GTTAGCGGAAACGTTGAC ((.(.((....)).).))
4. GTAACAGAAATGTTAC ((((((....))))))
5. GGTTTCGGAAACGAAGTC (..((((....))))..)
6. GCAGACGAAAGTCGGTGC ((((((....)))..)))
7. GATCAATCGTTGATC ((((((...))))))

OUTPUT:
1: -26.9; 2: -18.4; 3: -14.7; 4: -32.8; 5: -10.3; 6: -19.3; 7: -26.8

Hey, can you go through the list below and give me folding enthalpy for every item?
1. GTCTTCTCGAAAGAGGAC (((..(((....))))))
2. GCGGGGCGAAAGCCAGGC ((..(((....)))..))
3. CGCACGGAAACGTCCGCG ((((((....)))..)))
4. CTGCGGAAACGCAG (((((....)))))
5. ACATAGAAATATGT (((((....)))))
6. GCGAGTATCGC ((((...))))
7. GATAAGCCGAAAGGCATC (((..(((....))))))

OUTPUT:
1: -17.2; 2: -17.5; 3: -19.1; 4: -31.6; 5: -7.88; 6: -18.7; 7: -9.19

Hey, can you go through the list below and give me folding enthalpy for every item?
1. GATCGAGAGTCGATC ((((((...))))))
2. GGTTTCGAAAGAAAACC ((((((....))).)))
3. GTCTTGGAAACAAGAC ((((((....))))))
4. GCAAGCGGAAACGCCTGC (((.(((....))).)))
5. GCGCGTGGAAACACGCAC (.(((((....))))).)
6. GTCCCAACGAAAGTTGAC (((..(((....))))))
7. GCGATTATCGC ((((...))))

OUTPUT:
-29.7
-25.7
-35.3
-17.1
-9.64
-9.31
-20.9

Hey, can you go through the list below and give me folding enthalpy for every item?
1. GCTACGGGAAACCATAGC ((((.((....)).))))
2. GGCCTTGGAAACAAGGTC (.(((((....))))).)
3. GTACGCGGAAACACGTAC (((((.(....).)))))

OUTPUT:
1: -31; 2: -34.4; 3: -34.1
